Data provenance is the supplement of paper PMC6555819.

test system: FXR:RXRa (NR concentration 270 nM, RXRa partner concentration 90 nM); assay: PBM binding z-score (relative to random genomic background probes); higher = stronger binding; sequences stand for … in GC…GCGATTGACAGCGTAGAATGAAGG
Is PBM binding z-score at least 0.6? Then MET. If not, NOT MET.

Enquiry: Please indicate if the recorded PBM binding z-score for GCGACTCGGGCATCAGCAGGTTACCATAACTTAA meets or exceeds 0.6.
Return: NOT MET

Enquiry: Please indicate if the recorded PBM binding z-score for TCTTCTAGATCAAAGGTTAAGAAAGCCGAAGCCT meets or exceeds 0.6.
Return: MET

Enquiry: Please indicate if the recorded PBM binding z-score for CTCCCAAGGTGAACAAGGTCGTTGATTACTATTC meets or exceeds 0.6.
Return: MET

Enquiry: Please indicate if the recorded PBM binding z-score for TTACCAAGGTGAAGGTCGTTAATCCCTCTGTAGA meets or exceeds 0.6.
Return: MET
